Listing of recorded CMV-LACZ in Myotubes, signal relative to DMSO by entry.
System: β-galactosidase in CMV-LacZ C2C12 myotubes
Experiment: CMV-LacZ secondary screen in C2C12 myotubes (β-Gal stabilizing assay)
Assay type: cell-based, mouse
Conditions: 10 uM; C2C12 CMV-LacZ myotubes; fold relative to DMSO
Source text: In order to determine compounds that acted to stabilize β-gal in myogenic cells, a CMV-LacZ C2C12 cell line was used in a secondary screen. The EGFP gene from the pEGFP (Clontech) vector was replaced by LACZ PCR product with digests of the vector/PCR product performed using EcoRI (NEB) and NotI (NEB) and ligated using T4 DNA Ligase (NEB) following standard procedures to produce the CMV-LACZ vector. […]
The reply should be a number, written without any unit.

| COMPOUND | QUANTITATIVE_READOUT |
| --- | --- |
| O=C(CCc1ccccc1)c1nnc(-c2ccccc2)o1 | 0.9480 |

# CMV-LACZ in Myotubes, signal relative to DMSO of O=C(NCCc1ccc(Cl)cc1)C1CCCO1 (stereo not drawn) = 0.9957

# CMV-LACZ in Myotubes, signal relative to DMSO of CC1CC(C)(C)NC(=S)N1CC(=O)N(C)Cc1ccccc1 (stereo not drawn) = 1.1338

# CMV-LACZ in Myotubes, signal relative to DMSO of O=C(N[C@@H](Cc1c[nH]c2ccccc12)C(=O)O)C1CCN(S(=O)(=O)c2cccs2)CC1 = 0.7979

# CMV-LACZ in Myotubes, signal relative to DMSO of Cc1cccc(Cn2cnc3c(nnn3Cc3ccc(Cl)cc3)c2=O)c1 = 1.0738

# CMV-LACZ in Myotubes, signal relative to DMSO of Cc1ccc(NC(=O)COc2ccccc2CNC(C)(C)CC(C)(C)C)cc1 = 0.5729

# CMV-LACZ in Myotubes, signal relative to DMSO of CN(CC(=O)Nc1cccc(F)c1)C(=O)c1ccc(-c2ccc(Cl)cc2)o1 = 0.9981

* * *

system: β-galactosidase in CMV-LacZ C2C12 myotubes; assay: CMV-LacZ secondary screen in C2C12 myotubes (β-Gal stabilizing assay); type: cell-based, mouse; conditions: 10 uM; C2C12 CMV-LacZ myotubes; fold relative to DMSO
OBSERVATION_TYPE: CMV-LACZ in Myotubes, signal relative to DMSO
The reply should be a number, written without any unit.

| MOLECULE | QUANTITATIVE_READOUT |
| --- | --- |
| O=C(c1cccs1)N(Cc1ccco1)c1nc(-c2ccc(F)cc2)cs1 | 1.063 |
| O=C(Nc1ccc(Cl)cc1N1CCOCC1)C1CCCCC1 | 0.8952 |
| CNC(=S)N1CCC(NC(=O)C(Cc2ccc(F)cc2)NC(C)=O)CC1 (stereo not shown) | 0.8646 |
| CCCn1c(-c2cc(OC)c(OC)c(OC)c2)nc2c1c(=O)[nH]c(=O)n2Cc1ccccc1 | 1.0520 |
| CCCCNC(=O)CSc1nnc(Cc2ccc(Cl)c(Cl)c2)c(=O)[nH]1 | 0.7316 |

# CMV-LACZ in Myotubes, signal relative to DMSO of CCCCNc1nnc(Cc2ccc(Cl)cc2)c(=O)[nH]1 = 1.0250

# CMV-LACZ in Myotubes, signal relative to DMSO of Cc1[nH]c(=O)[nH]c(=O)c1S(=O)(=O)Nc1ccc(F)cc1Cl = 0.8176

* * *

test system: β-galactosidase in CMV-LacZ C2C12 myotubes; assay: CMV-LacZ secondary screen in C2C12 myotubes (β-Gal stabilizing assay); format: cell-based, mouse; details: 10 uM; C2C12 CMV-LacZ myotubes; fold relative to DMSO
OBSERVATION_TYPE: CMV-LACZ in Myotubes, signal relative to DMSO
The reply should be a number, written without any unit.

Examples with their reported CMV-LACZ in Myotubes, signal relative to DMSO follow.
| CHEMICAL_STRUCTURE | EXPERIMENTAL_TARGET | QUANTITATIVE_READOUT |
| --- | --- | --- |
| COC(=O)c1cc(S(=O)(=O)NCC2CCN(Cc3ccc(Cl)cc3)CC2)cn1C | β-galactosidase in CMV-LacZ C2C12 myotubes | 1.0031 |
| CC(=O)Nc1nonc1-c1nc2ccccc2n1CCC(C)C | β-galactosidase in CMV-LacZ C2C12 myotubes | 0.9804 |
| COC(=O)c1ccccc1NC(=O)c1cc[n+]([O-])cc1 | β-galactosidase in CMV-LacZ C2C12 myotubes | 1.009 |
| CCOC(=O)c1nnn(-c2nonc2OC)c1-c1ccccc1 | β-galactosidase in CMV-LacZ C2C12 myotubes | 0.9776 |

Attention now shifts to the item below.
Simply: Cc1ccc(N(CCC(=O)O)S(=O)(=O)c2cccc(C(F)(F)F)c2)cc1 , β-galactosidase in CMV-LacZ C2C12 myotubes, CMV-LACZ in Myotubes, signal relative to DMSO = 1.012

* * *

Listing of recorded CMV-LACZ in Myotubes, signal relative to DMSO by entry.
tested on: β-galactosidase in CMV-LacZ C2C12 myotubes; test: CMV-LacZ secondary screen in C2C12 myotubes (β-Gal stabilizing assay); format: cell-based, mouse; settings: 0.5 uM; C2C12 CMV-LacZ myotubes; fold relative to DMSO
The reply should be a number, written without any unit.

Examples with their reported CMV-LACZ in Myotubes, signal relative to DMSO follow.
| COMPOUND | EXPERIMENTAL_TARGET | QUANTITATIVE_READOUT |
| --- | --- | --- |
| N#Cc1nc(COc2ccccc2)oc1N1CCCC1 | β-galactosidase in CMV-LacZ C2C12 myotubes | 0.9867 |
| O=C(Nc1cc(-c2nc3ccccc3s2)ccc1Cl)c1ccc2c(c1)OCO2 | β-galactosidase in CMV-LacZ C2C12 myotubes | 0.9724 |
| c1ccc(-c2cc(-c3nc4ccccc4[nH]3)c3ccccc3n2)cc1 | β-galactosidase in CMV-LacZ C2C12 myotubes | 1.0019 |
| O=C1CCC(C(=O)N2CCSCC2)CN1Cc1ccc(Cl)cc1 (stereo not drawn) | β-galactosidase in CMV-LacZ C2C12 myotubes | 1.0009 |
| COCCSc1ccccc1C(=O)Nc1cc(C)cc(C)c1 | β-galactosidase in CMV-LacZ C2C12 myotubes | 1.0074 |

# CMV-LACZ in Myotubes, signal relative to DMSO of CCN(CC)C(=O)c1sc2nc(-c3ccc(OC)cc3)cn2c1C = 0.9716

# CMV-LACZ in Myotubes, signal relative to DMSO of CC1(C)Cc2c(cnn2-c2cccc(F)c2)C(NC(=O)CCc2cnccn2)C1 (stereo not drawn) = 1.0074

# CMV-LACZ in Myotubes, signal relative to DMSO of CC(C)(C)c1ccc(C(=O)OCC(=O)Nc2sc3c(c2C#N)CCC3)cc1 = 1.0257

# CMV-LACZ in Myotubes, signal relative to DMSO of CC1Cc2ccccc2N1C(=O)CSc1nnc(N)s1 (stereo not drawn) = 0.9762

# CMV-LACZ in Myotubes, signal relative to DMSO of CC(C)c1ccc(NC(=O)CN2C(=O)c3ccccc3S2(=O)=O)cc1 = 1.0126

# CMV-LACZ in Myotubes, signal relative to DMSO of O=C(O)c1csc(-c2cccs2)n1 = 1.0248

# CMV-LACZ in Myotubes, signal relative to DMSO of CC1CCN(C(CNS(=O)(=O)c2ccccc2)c2ccccc2)CC1 (stereo not drawn) = 0.9863

* * *

system: α7 integrin (LacZ reporter in α7LacZ+/− myoblasts); test: qHTS of the LOPAC library and MLSMR (online screen, α7LacZ+/− myoblasts); settings: Mus musculus, Myoblast, 48 h, read-out: Activity at 1.530 uM [%] **
OBSERVATION_TYPE: activation at 1.53 µM (%)
The response must be a number in % with no trailing unit.

| MOLECULE | activation at 1.53 µM / % |
| --- | --- |
| N#Cc1ccc(Sc2nc3ccccc3[nH]2)cc1C#N | 13.1 |

# activation at 1.53 µM of COc1cc(CNCc2ccc(C(=O)O)cc2)ccc1OCc1ccc(F)cc1 = 14.6

# activation at 1.53 µM of Cc1cc(NC(=O)c2ccc(Cl)cc2Cl)no1 = 15

# activation at 1.53 µM of O=C1SC(Cc2ccccc2)C(=O)N1c1ccccc1 (centres unmarked) = 9.4

* * *

system: β-galactosidase in CMV-LacZ C2C12 myotubes; test: CMV-LacZ secondary screen in C2C12 myotubes (β-Gal stabilizing assay); format: cell-based, mouse; conditions: 10 uM; C2C12 CMV-LacZ myotubes; fold relative to DMSO
Class Condition met: CMV-LACZ in Myotubes, signal relative to DMSO at least 1. Class Condition not met: CMV-LACZ in Myotubes, signal relative to DMSO below 1.

Example entries and their recorded answers appear below.
| COMPOUND | QUALITATIVE_LABEL |
| --- | --- |
| CCCCCCC1CC(=O)NC(=O)N1 (centres unmarked) | Condition not met |
| Cc1cc(NC(=O)CN2C(=O)/C(=C/c3ccccc3F)SC2=S)no1 | Condition not met |

Does the reported CMV-LACZ in Myotubes, signal relative to DMSO for N#Cc1ccccc1S(=O)(=O)N1CCN(C(=O)C2CCCCC2)CC1 fall at or above the 1 mark?
Condition not met

Does the reported CMV-LACZ in Myotubes, signal relative to DMSO for Cc1cc([N+](=O)[O-])ccc1NC(=O)C(C)N1CCN(c2ccccn2)CC1 (centres unmarked) fall at or above the 1 mark?
Condition not met

Does the reported CMV-LACZ in Myotubes, signal relative to DMSO for O=C(CSc1nnc(COc2ccc(Br)cc2)o1)NC1CCCCC1 fall at or above the 1 mark?
Condition met
